test: NCI Yeast Anticancer Drug Screen. Data for the rad50 strain (AID 155); conditions: S. cerevisiae rad50 strain growth inhibition; at 1.2 µM
This is part of a sample that, as a whole, favours compounds with a hit. Of some 79,000 tested, about 15% had one in any assay. The source made the active and inactive calls. Cut-off read from the data, not from the text of the source: active = growth inhibition above about 70%; inactive = the rest.
Outcome codes: TRUE (active), FALSE (inactive)

| molecule | class |
| --- | --- |
| Cc1c2c(nc3ccccc13)C(=O)c1cccnc1C2=O | FALSE |
| CC(=O)CC(c1ccccc1)c1c(O)c2ccccc2oc1=O (configuration not stated) | FALSE |
| CS(=O)(=O)O.[Ag] | TRUE |
| C/C(=N\OCC(O)CNCCSCc1ccccc1)c1ccccc1Cl (configuration not stated) | FALSE |
| CCN(CC)C(=S)SC(=S)N(CC)CC | FALSE |
| CCCCCCC=C(C(=O)OCC)C(=O)OCC | FALSE |
| Cc1c(C(=O)/C=C/c2ccccc2[N+](=O)[O-])[n+](=O)c2ccccc2n1[O-] | FALSE |
| Cc1cc(C)c2[s+]snc2c1 | FALSE |
| O=S1(=O)CCC2=CC(C(F)(F)F)=CC(C(F)(F)F)=CN21 | FALSE |
| CCOC(=O)CC1(C)/C(=N\Nc2ccc([N+](=O)[O-])cc2[N+](=O)[O-])CCC2C1CCC1(C)C(C(C)CCCC(C)C)CCC21 (configuration not stated) | FALSE |
| CCOC(=O)/C(=C/c1cccc(Cl)c1)N(CC)CC | FALSE |
| COc1cc2oc3ccccc3c(=O)c2cc1CSc1ccccc1N | FALSE |
